B1: Hairpin Ribozyme (parent)
chain: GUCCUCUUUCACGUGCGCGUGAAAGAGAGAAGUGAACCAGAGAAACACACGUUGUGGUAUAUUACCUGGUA

- Variants of: B1
- experimental_details: self-cleavage, relative activity (ratio to wild type); higher = more cleavage; co-transcriptional
Categorize each record by its self-cleavage using A = under 0.1, B = from 0.1 up to 0.3, C = 0.3 and over

GUCCUCUUUCACGUGCGCGUGAAAGAGAGAAGUCAACCAGAGAAACACACGUUGUGGUAUAUGACCUGGUA | B
GUCCUCUUUCACGUGCGCCUGAAAGAGAGAAGUGAACCAGAGAAACACAAGUUGUGGUAUAUUACCUGGUA | B
GUCCUCUUUCACGUGCGCGUGAAAGAGAGCAGUUAACCAGAGAAACACACGUUGUGGUAUAUUACCUGGUA | C
GUCCUCUUUCACGUGCGCGUGAAAGAGAGAAGUGAACCUGAGAAACACGCGUUGUGGUAUAUUACCUGGUA | B
GUCCUCAUUCACGUGCGCGUGAAAGAGAGAAGUGAACCAGAGAAACACACGUUGUGGUGUAUUACCUGGUA | B
GUCCUCUUUCACGGGCGCGUGAAAGAGAGAAGUGAACCAGAGAAACAAACGUUGUGGUAUAUUACCUGGUA | B
GUCCUCUUUCACGUGCGCGUGAAGGAGAGAAUUGAACCAGAGAAACACACGUUGUGGUAUAUUACCUGGUA | A
GUCCACUUUCACGUGCGCGUGAAAGAGAGAAGUGAACCAGAGAAGCACACGUUGUGGUAUAUUACCUGGUA | A
GUCCUCUUUCACGUGCGCGAGAAAGAGAGAAGUGAACCAGAGAAACACACGUUGUGGUAUAUCACCUGGUA | B
GGCCUCUUUCACGUGCGCGUGCAAGAGAGAAGUGAACCAGAGAAACACACGUUGUGGUAUAUUACCUGGUA | C
GUCCUCUUUCACGUGCGCGUGAAAGAGAGAAGUGUACCAGAGAAAUACACGUUGUGGUAUAUUACCUGGUA | B
GUCCUCUUUCACGUGCGCGUGAAAGAGAGAAGUCAACCAGAGAAACACACGUUUUGGUAUAUUACCUGGUA | C
GUCCUCUUUCACGUGCGCGUGAAAGAGAGAAGUGAUUCAGAGAAACACACGUUGUGGUAUAUUACCUGGUA | B
GUCCUCUUUCACGUGCGCGUGAAAGAGAGAAGUGAACCAGAGAAACACACGUUGUAGUAUAUUACCUGAUA | B
GUCCUCUUUCACGUGCGCGUGAAAGAGAGAAGUUAAUCAGAGAAACACACGUUGUGGUAUAUUACCUGGUA | C
GUCCUCUUUCACGUGCGCGUGAAAGAGAGAAGUGAACCAGAGAAACACAGGUUGUGGUUUAUUACCUGGUA | B
GUCCUCUAUCACGUGCGCGUGAAAGAGAGAAGUGAACCAGAGAAACACUCGUUGUGGUAUAUUACCUGGUA | B
GUCCUCUUUCACGUGCGCGUGAAAGAGAGAAGUGAACCAGAGAAACACACGUUUUGGUAUAUCACCUGGUA | B
GACCUCUUUCACGUGCGCGUGAAAGAGAGAAGCGAACCAGAGAAACACACGUUGUGGUAUAUUACCUGGUA | A
GUCCUCUUUCACGUGCGCGUGAAAGAGAGAAGUGAACCAGAUAAACACACGUUGUGGUAUAUGACCUGGUA | B
GUCCUCUUCCACGUGCGCGUGAAAGAGAGAAGUGAACCAGAGAAACACACGUUGUGGUAUAUGACCUGGUA | B
GUCCUCUUUCACGUGCGAGUGAAAGAGAGAAGUGAACCAGAGAAACACACGUGGUGGUAUAUUACCUGGUA | C
GUCCUCUUUCACGUGCGCGUGAAAGUGAGAAGUGAACCAGAGAAACACACGUUGAGGUAUAUUACCUGGUA | A
GUCCUCUUUCACGUGCGCGCGAAAGAGAGACGUGAACCAGAGAAACACACGUUGUGGUAUAUUACCUGGUA | A
GUCCUCUUUCACGUGCGCGUGAUAGAGAUAAGUGAACCAGAGAAACACACGUUGUGGUAUAUUACCUGGUA | B
GUCCUCUUUCACGUGCGCGUGAAAGAGAGAAGUGAACCAGAGAAACACACCUUGUGAUAUAUUACCUGGUA | B
GUCCUCUUUCACGAGCGCAUGAAAGAGAGAAGUGAACCAGAGAAACACACGUUGUGGUAUAUUACCUGGUA | C
GUCCUCCUUCACGUGCGCGUGAAAGAGAGAAGUGAACCACAGAAACACACGUUGUGGUAUAUUACCUGGUA | B
GUCCUCUUUCACGUGCGCGUGAAAGAGAGAAGUGAACCAGAGAAACACGCGUUGUGGUAUCUUACCUGGUA | A
GUCCUCUUUCACGUGCGCGUGAAAGAGAGAAGUGAACCAGAGAAACACACGUUCUGGUAUAUUACAUGGUA | B
GUCCUCUUUCACGUUCGCGUGAAAGAGAGAAGUGAACCAGAGAAACACACGUUGUGGUAUAUUGCCUGGUA | C
GUCCUCUUUCACGUGCGCGUGAAAGAGAGAAGUGAACCAGAGAAACCCACGUUGUGGUAUAUUACCUGGGA | B
GUCCUCUUUCACGUGCGCGUGAAAGAGAGAAGUUAACCAGAAAAACACACGUUGUGGUAUAUUACCUGGUA | C
GUCGUCUUUCACGUGCGCGUGAAAGAGAGAAGUGAACCAGAGAAACACACGUUGUGGUGUAUUACCUGGUA | B
GUCCUCUUUCACGUGCGCGUGAAAGAGAGAAGUGAAACAGAGAAACACACGUUGUGGUAUAUUACCUGCUA | C
GUCCUCUUUCACGUGCGGGUGAAAGAGAGAAGUGAACCAGAGAAACACACGUUGUGGUAUAUUACUUGGUA | C
GUCCUCUUUCACGUGCGCGUAAAAGAGAGAAGUGAACCAGAGAAACACACGUUGUGGUCUAUUACCUGGUA | B
